- PROCEDURE DETAILS: in vivo
- CONDITIONS USED: Sprague-Dawley, rat, kidney/plasma, po, 10 mg/kg
- Description: Ratio of drug concentration in Sprague-Dawley rat kidney to plasma at 10 mg/kg, po administered as single dose measured upto 24 hrs by LC-MS/MS analysis
READOUT KIND: Kp at 24 h

> print(dat)
                                 smiles.str  assay.result
1  C[C@H]1CCN1c1nc(N2CC[C@H](CCC(=O)O)C2)c2c(n1)C(F)(F)CC2           2.2

* * *

- PROCEDURE DETAILS: in vivo
- CONDITIONS USED: Sprague-Dawley, rat, spleen, po, 10 mg/kg
- Description: Drug concentration in Sprague-Dawley rat spleen at 10 mg/kg, po administered as single dose measured upto 24 hrs by LC-MS/MS analysis
READOUT KIND: concentration at 24 h (ng/g)

> print(dat)
                                 smiles.str  assay.result
1  C[C@H]1CCN1c1nc(N2CC[C@H](CCC(=O)O)C2)c2c(n1)C(F)(F)CC2          1140

* * *

- PROCEDURE DETAILS: Volume of distribution at steady state in Sprague-Dawley rat at 10 mg/kg, iv administered as single dose measured upto 24 hrs by LC-MS/MS analysis
- Format: ADME, organism-based
- CONDITIONS USED: in vivo, read-out: Vdss
READOUT KIND: Vd (L/kg)

> print(dat)
                                 smiles.str  readout.kind  assay.result
1  C[C@H]1CCN1c1nc(N2CC[C@H](CCC(=O)O)C2)c2c(n1)C(F)(F)CC2            Vd          0.89

* * *

- PROCEDURE DETAILS: Metabolic stability in monkey hepatocyte assessed as parent compound remaining at 10 uM measured after 4 hrs by LC-MS/MS analysis
- Type: ADME, cell-based, Macaca mulatta
- CONDITIONS USED: rhesus monkey, hepatocytes, read-out: Stability
READOUT KIND: remaining at 4 h, 10 µM

> print(dat)
                                 smiles.str             readout.kind  assay.result
1  C[C@H]1CCN1c1nc(N2CC[C@H](CCC(=O)O)C2)c2c(n1)C(F)(F)CC2  remaining at 4 h, 10 µM         95.8%

* * *

- PROCEDURE DETAILS: Metabolic stability in human hepatocyte assessed as parent compound remaining at 10 uM measured after 4 hrs by LC-MS/MS analysis
- Type: ADME, cell-based
- CONDITIONS USED: hepatocytes, read-out: Stability
READOUT KIND: remaining at 4 h, 10 µM

> print(dat)
                                 smiles.str             readout.kind  assay.result
1  C[C@H]1CCN1c1nc(N2CC[C@H](CCC(=O)O)C2)c2c(n1)C(F)(F)CC2  remaining at 4 h, 10 µM         98.5%

* * *

- TARGET OR SYSTEM: Cytochrome P450 2C9 (Homo sapiens, UniProt P11712)
- Sequence (P11712 whole entry): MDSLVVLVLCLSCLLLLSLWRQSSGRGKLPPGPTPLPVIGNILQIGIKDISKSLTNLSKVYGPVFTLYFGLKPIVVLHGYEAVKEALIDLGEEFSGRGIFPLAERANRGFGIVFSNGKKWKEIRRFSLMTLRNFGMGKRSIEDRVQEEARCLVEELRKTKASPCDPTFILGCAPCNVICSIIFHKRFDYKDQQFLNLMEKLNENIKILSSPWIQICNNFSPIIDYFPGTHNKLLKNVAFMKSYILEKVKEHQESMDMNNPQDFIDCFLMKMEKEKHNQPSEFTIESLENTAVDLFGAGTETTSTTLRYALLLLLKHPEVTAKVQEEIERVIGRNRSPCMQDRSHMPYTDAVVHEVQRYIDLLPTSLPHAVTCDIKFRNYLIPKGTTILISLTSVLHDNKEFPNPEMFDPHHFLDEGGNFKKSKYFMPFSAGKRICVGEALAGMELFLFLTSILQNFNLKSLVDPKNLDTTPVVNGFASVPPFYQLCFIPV
- PROCEDURE DETAILS: Time dependent inhibition of CYP2C9 in human liver microsomes at 10 uM preincubated for 30 mins followed by substrate addition and measured after 15 mins in presence of NADPH by LC-MS/MS analysis
- Type: ADME, Microsome
pIC50: −log10 of the molar value.
READOUT KIND: pIC50

> print(dat)
                                 smiles.str  readout.kind  assay.result
1  C[C@H]1CCN1c1nc(N2CC[C@H](CCC(=O)O)C2)c2c(n1)C(F)(F)CC2         pIC50        < 5.00
